Biological target: T1, monomeric human PRLR (hPRLR.mmh; SEQ ID NO:401) (Homo sapiens, UniProt P16471)
T1 construct: soluble monomeric (hPRLR.mmh); mmh (myc-myc-hexahistidine) (C)
T1 sequence (P16471 with tags, fused parts or gaps): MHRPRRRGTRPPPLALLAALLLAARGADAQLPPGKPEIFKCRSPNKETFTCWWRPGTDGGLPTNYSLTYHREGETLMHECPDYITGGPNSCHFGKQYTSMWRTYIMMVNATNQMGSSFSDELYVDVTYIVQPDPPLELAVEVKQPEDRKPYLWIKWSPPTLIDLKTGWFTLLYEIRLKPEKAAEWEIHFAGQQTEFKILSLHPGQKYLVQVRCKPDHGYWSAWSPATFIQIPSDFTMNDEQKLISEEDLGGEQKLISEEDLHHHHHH
Assay: Surface plasmon resonance (Biacore T200), antibody-capture format
Type: binding
Details: 37° C., analyte hPRLR.mmh

{"molecule": "H1H6793P: fully human anti-PRLR antibody, human IgG1 Fc; HCVR/LCVR SEQ ID NOs 146/154 (antibody, V domains shown) VH: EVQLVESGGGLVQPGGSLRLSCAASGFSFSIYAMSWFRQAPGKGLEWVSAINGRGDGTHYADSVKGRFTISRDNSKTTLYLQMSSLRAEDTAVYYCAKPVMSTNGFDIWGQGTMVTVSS VL: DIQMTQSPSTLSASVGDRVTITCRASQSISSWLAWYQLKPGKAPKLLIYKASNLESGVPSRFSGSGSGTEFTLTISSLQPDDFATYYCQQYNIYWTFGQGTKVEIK", "result.units": "s⁻¹", "kd": 0.00102}
{"molecule": "H1H6774P: fully human anti-PRLR antibody, human IgG1 Fc; HCVR/LCVR SEQ ID NOs 34/42 (antibody, V domains shown) VH: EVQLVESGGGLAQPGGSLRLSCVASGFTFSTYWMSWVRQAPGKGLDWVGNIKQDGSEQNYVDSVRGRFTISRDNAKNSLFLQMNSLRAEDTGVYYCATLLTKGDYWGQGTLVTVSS VL: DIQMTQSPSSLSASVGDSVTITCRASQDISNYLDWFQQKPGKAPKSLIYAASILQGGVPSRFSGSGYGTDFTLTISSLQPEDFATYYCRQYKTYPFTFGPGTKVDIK", "result.units": "s⁻¹", "kd": 0.00317}
